Target: PPAR-α (Homo sapiens, UniProt Q07869)
Sequence (Q07869 1-468): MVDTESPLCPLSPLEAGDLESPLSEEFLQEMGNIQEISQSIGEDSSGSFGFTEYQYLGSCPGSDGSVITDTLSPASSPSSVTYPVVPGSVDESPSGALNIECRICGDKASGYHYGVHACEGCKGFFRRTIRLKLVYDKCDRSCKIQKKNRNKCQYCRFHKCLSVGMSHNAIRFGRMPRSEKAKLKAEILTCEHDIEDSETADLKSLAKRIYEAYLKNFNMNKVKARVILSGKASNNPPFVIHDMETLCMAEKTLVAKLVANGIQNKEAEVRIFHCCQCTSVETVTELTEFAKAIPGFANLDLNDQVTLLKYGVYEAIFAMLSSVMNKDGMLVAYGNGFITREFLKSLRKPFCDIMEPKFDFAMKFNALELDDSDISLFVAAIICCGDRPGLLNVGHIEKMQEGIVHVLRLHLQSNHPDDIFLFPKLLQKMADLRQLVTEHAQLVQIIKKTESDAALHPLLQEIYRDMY
Assay: Scintillation Proximity Assay (SPA), displacement of 3H labeled GW2331
Assay type: binding
Details: 3H GW2331 displacement, read-out: PPAR-alpha Ki
MEASUREMENT LABEL: Ki (nM)

- CS(=O)(=O)c1ccc(-c2ccc(CCOc3ccc(CC4(C(=O)O)CCC4)cc3)cc2)cc1: 25000
- CCOC(Cc1ccc(OCCc2nc(-c3ccc(Cl)cc3)oc2C)nc1)C(=O)O (stereo not shown): 220
- Cc1oc(-c2ccccc2)nc1CCCOC(=O)NCc1cccc(OC(C)(C)C(=O)O)c1: 340
- Cc1oc(-c2ccccc2)nc1CCOc1ccc(CC2(C(=O)O)CCCO2)cc1 (stereo not shown): 15

###

target: PPAR-γ (Homo sapiens, UniProt P37231); assay: Scintillation Proximity Assay (SPA), displacement of 3H labeled darglitazone; assay type: binding; conditions: 3H darglitazone displacement, read-out: PPAR-gamma Ki
Sequence (P37231 whole entry, species assumed): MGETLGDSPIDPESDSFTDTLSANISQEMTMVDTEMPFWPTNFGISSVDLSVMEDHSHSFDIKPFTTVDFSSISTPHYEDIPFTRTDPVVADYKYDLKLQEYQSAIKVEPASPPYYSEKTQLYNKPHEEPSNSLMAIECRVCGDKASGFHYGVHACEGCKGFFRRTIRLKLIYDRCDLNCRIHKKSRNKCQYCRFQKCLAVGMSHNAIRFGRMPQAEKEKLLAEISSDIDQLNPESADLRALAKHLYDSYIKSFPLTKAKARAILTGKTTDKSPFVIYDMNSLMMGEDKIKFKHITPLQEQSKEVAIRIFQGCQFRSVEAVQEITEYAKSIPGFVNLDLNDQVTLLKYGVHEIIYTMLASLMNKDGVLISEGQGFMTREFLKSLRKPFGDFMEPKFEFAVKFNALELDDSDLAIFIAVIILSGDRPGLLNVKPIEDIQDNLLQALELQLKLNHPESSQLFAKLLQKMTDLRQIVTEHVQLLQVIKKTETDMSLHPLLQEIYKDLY
Rule: Ki below 700 nM gives condition met. Equal to or above 700 nM gives condition not met.

- Cc1oc(-c2ccccc2)nc1CCOc1ncc(CC2(C(=O)O)CCCO2)cn1 (centres unmarked): condition not met
- O=C(O)C1(Oc2ccc(OCc3nc(-c4ccccc4)oc3-c3ccccc3)cc2)CCC1: condition not met
- CCOc1ccc(CCOc2ccc(CC(OCC)C(=O)O)cn2)cc1 (centres unmarked): condition not met
- COC(Cc1ccc(OCCc2nc(-c3ccc(C#N)cc3)oc2C)nc1)C(=O)O (centres unmarked): condition met
- Cc1oc(-c2ccc(C#N)cc2)nc1CCOc1ccc(CC2(C(=O)O)CCCO2)cn1 (centres unmarked): condition met
- Cc1oc(-c2ccccc2)nc1CCCOc1ccc2cc(CC3(C(=O)O)CCCO3)ccc2c1 (centres unmarked): condition not met
- Cc1oc(-c2ccc(C(N)=O)cc2)nc1CCOc1ccc(CC2(C(=O)O)CCCO2)cc1 (centres unmarked): condition met

###

Items are presented alongside their recorded Ki.
target: UniProt:Q07869; assay: Scintillation Proximity Assay (SPA), displacement of 3H labeled GW2331; assay type: binding; conditions: 3H GW2331 displacement, read-out: PPAR-alpha Ki
MEASUREMENT LABEL: Ki (nM)

- Cc1cccc(-c2nc(CCOc3ccc(CC4(C(=O)O)CCCO4)nc3)c(C)o2)c1 (centres unmarked): 1100
- Cc1oc(-c2cccc(F)c2)nc1COc1cccc(-c2cccc(OC3(C(=O)O)CCC3)c2)c1: 120
- COC(Cc1ccc(OCCc2nc(-c3ccc(C(F)(F)F)cc3)oc2C)nc1)C(=O)O (centres unmarked): 50
- COC(C)(Cc1ccc(OCCc2ccc(Oc3ccccc3)cc2)nc1)C(=O)O (centres unmarked): 1800
- Cc1onc(-c2ccccc2)c1COc1cccc(-c2cccc(OC3(C(=O)O)CCC3)c2)c1: 140
- COC(Cc1ccc(OCCc2nc(-c3cccc(C)c3)oc2C)nc1)C(=O)O (centres unmarked): 300
- Cc1oc(-c2ccccc2)nc1CCOc1ccc(CC2(C(=O)O)CCCC2)cc1: 390
- CS(=O)(=O)Oc1ccc(CCOc2ccc(CC3(C(=O)O)CCCO3)cn2)cc1 (centres unmarked): 7100
- Cc1oc(-c2ccccc2)nc1CCOc1ccc(CC2(C(=O)O)CCCC2)cn1: 3500
- COC(C)(Cc1ccc(OCCc2nc(C3CCCCC3)oc2C)nc1)C(=O)O (centres unmarked): 59
- CCOC(Cc1cccc(CNC(=O)OCc2nc(-c3ccccc3)oc2C)c1)C(=O)O (centres unmarked): 460
- Cc1oc(-c2cccc(C(F)(F)F)c2)nc1CCOc1ccc(CC2(C(=O)O)CCC2)cc1: 110
- Cc1oc(-c2ccc(Cl)cc2)nc1CCOc1ccc(CC2(C(=O)O)CCCO2)cn1 (centres unmarked): 14
- Cc1oc(-c2ccccc2)nc1CCCOC(=O)NCc1cccc(OC2(C(=O)O)CCC2)c1: 84
- Cc1cccc(-c2nc(CCOc3ccc(CC4(C(=O)O)CCCO4)cc3)c(C)o2)c1 (centres unmarked): 30
- O=C(O)C1(Oc2cccc(-c3cccc(OCc4cc(-c5ccccc5)no4)c3)c2)CCC1: 150
- COc1cccc(-c2nc(CCOc3ccc(CC(OC)C(=O)O)cn3)c(C)o2)c1 (centres unmarked): 15
